Target: PD-1/PD-L1 interaction (Homo sapiens, UniProt Q9NZQ7)
Construct: purchased PerkinElmer AL356 HV/C/F
Sequence (Q9NZQ7 19-238 limits assumed): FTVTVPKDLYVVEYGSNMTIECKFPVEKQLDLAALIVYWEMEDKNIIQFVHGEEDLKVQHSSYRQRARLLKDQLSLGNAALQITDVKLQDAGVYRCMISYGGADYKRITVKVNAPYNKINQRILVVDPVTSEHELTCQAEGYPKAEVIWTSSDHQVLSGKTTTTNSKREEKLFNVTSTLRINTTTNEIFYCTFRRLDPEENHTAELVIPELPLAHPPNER
Test: AlphaLISA amplified luminescence proximity homogeneous assay, inhibition of PD-1/PD-L1 binding
Conditions: AlphaLISA, His-tagged PD-L1 and biotin-conjugated PD-1, 25 °C, 90 min
pIC50: −log10 of the molar value. Numbered stars: 1 amine (or outer) side, 2 acyl side, 3 side chain; on linkers, the order of the positions; unused ones are H or OH. Square brackets hold non-standard residues; d marks the D form. Peptide text beside a SMILES is read from it. X1 = Cc1c(COc2ccc(C[C@H](N[*:1])C(=O)[*:2])cc2Br)cccc1-c1ccccc1
parameter: pIC50

[I] Cc1c(COc2ccc(C[C@H](N)C(=O)NCC(=O)NCC(=O)O)cc2Br)cccc1-c1ccccc1
[II] CSCC[C@H](NC(=O)[C@H](CCCCN)NC(=O)[C@H](CC(N)=O)NC(=O)[C@H](Cc1ccc(OCc2cccc(-c3ccccc3)c2C)c(Br)c1)NC(=O)[C@H](CCCNC(=N)N)NC(=O)[C@H](CCC(=O)O)NC(=O)[C@@H](N)CS)C(=O)O [CERXNKM] (H-CER[X1]NKM-OH)
Parameter check: reported pIC50 is higher for which label, I or II ? Pick one; state its label.
II

---

Target: PD-1/PD-L1 interaction (Homo sapiens)
Construct: purchased PerkinElmer AL356 HV/C/F
Test: AlphaLISA amplified luminescence proximity homogeneous assay, inhibition of PD-1/PD-L1 binding
Settings: AlphaLISA, His-tagged PD-L1 and biotin-conjugated PD-1, 25 °C, 90 min
parameter: IC50 (µM)

[A] Cc1c(COc2ccc(C[C@H](NC(=O)[C@@H](N)CCCNC(=N)N)C(=O)N[C@@H](CC(N)=O)C(=O)O)cc2Br)cccc1-c1ccccc1
[B] Cc1c(COc2ccc(C[C@H](N)C(=O)N[C@@H](CO)C(=O)O)cc2Br)cccc1-c1ccccc1
Record comparison, field IC50: mark the lower of A and B . Pick one; state its label.
A
(A: 405 µM, B: 2650 µM)

---

Target: PD-1/PD-L1 interaction (Homo sapiens)
Construct: purchased PerkinElmer AL356 HV/C/F
Assay: AlphaLISA amplified luminescence proximity homogeneous assay, inhibition of PD-1/PD-L1 binding
Details: AlphaLISA, His-tagged PD-L1 and biotin-conjugated PD-1, 25 °C, 90 min
parameter: IC50 (µM)

Cc1c(COc2ccc(C[C@H](N)C(=O)O)cc2Br)cccc1-c1ccccc1 [X]	1.5
Cc1c(CO)cccc1-c1ccccc1 [Compound1, 3-hydroxymethyl-2-methylbiphenyl]	309
Cc1c(COc2ccc(C[C@H](NC(=O)OCC3c4ccccc4-c4ccccc43)C(=O)OC(C)(C)C)cc2Br)cccc1-c1ccccc1 [Compound5]	897
CC(C)(C)OC(=O)[C@H](Cc1ccc(O)c(Br)c1)NC(=O)OCC1c2ccccc2-c2ccccc21 [Compound4]	1060
Cc1c(COc2ccc(C[C@H](NC(=O)CN)C(=O)O)cc2Br)cccc1-c1ccccc1 [GX]	448

[A] Cc1c(COc2ccc(C[C@H](NC(=O)[C@@H](N)Cc3c[nH]c4ccccc34)C(=O)NCC(=O)O)cc2Br)cccc1-c1ccccc1 [WXG]
[B] Cc1c(COc2ccc(C[C@H](NC(=O)OCC3c4ccccc4-c4ccccc43)C(=O)O)cc2Br)cccc1-c1ccccc1 [Compound6]
[C] Cc1c(COc2ccc(C[C@H](N)C(=O)NCC(=O)O)cc2Br)cccc1-c1ccccc1 [XG]
[D] Cc1c(COc2ccc(C[C@H](N)C(=O)N[C@@H](C)C(=O)O)cc2Br)cccc1-c1ccccc1 [XA]
[E] Cc1c(COc2ccc(C[C@H](N)C(=O)N[C@@H](Cc3c[nH]c4ccccc34)C(=O)O)cc2Br)cccc1-c1ccccc1 [XW]
Please produce an ascending ranking of these compounds based on IC50. Please respond with the labels ordered as the question requires.
C, D, A, E, B
(C: 2.1 µM, D: 22.3 µM, A: 405 µM, E: 845 µM, B: 1420 µM)
